meta.source: ChEMBL document CHEMBL1800018

Test: AUC in SHR rat at 3 mg/kg, po
Type: ADME, organism-based
Design: dose 3 mg/kg, route oral
Details: plasma
Measurement name: AUC (ng·h/mL)
Enter your answer as a number in ng·h/mL; do not include the unit.

Indicate its recorded AUC; the compound in question is `CCc1nc2c(C)cc(CC(C)C)nc2n1[C@H]1CCc2cc(-c3ccccc3-c3nnn[nH]3)ccc21` 1280

* * *

Molecular target: Peroxisome proliferator-activated receptor gamma (Homo sapiens, UniProt P37231)
Sequence (P37231 whole entry, the tested form may be a part): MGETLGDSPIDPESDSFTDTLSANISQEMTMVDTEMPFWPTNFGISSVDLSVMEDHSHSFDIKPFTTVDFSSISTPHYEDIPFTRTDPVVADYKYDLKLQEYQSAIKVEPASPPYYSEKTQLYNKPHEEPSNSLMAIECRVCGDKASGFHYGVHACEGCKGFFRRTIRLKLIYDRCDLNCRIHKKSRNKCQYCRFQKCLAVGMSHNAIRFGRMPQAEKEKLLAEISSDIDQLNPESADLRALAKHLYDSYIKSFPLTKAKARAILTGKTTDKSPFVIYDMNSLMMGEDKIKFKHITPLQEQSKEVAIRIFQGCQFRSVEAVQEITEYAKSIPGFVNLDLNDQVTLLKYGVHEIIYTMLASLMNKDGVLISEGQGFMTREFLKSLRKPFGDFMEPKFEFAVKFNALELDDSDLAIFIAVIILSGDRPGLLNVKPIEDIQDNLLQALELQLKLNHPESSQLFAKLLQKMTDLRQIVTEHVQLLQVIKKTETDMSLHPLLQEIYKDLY
Experiment: Partial agonist activity at human PPARgamma-LBD/Gal4 DNA binding domain by transactivation assay
Measurement name: pEC50
Entry type: numeric. Quantity: pEC50, the -log10 of concentration in molar units.

Record excerpt, results attached:
Cc1cc(C)c2nc(C(C)C)n([C@H]3CCc4cc(-c5ccccc5-c5nnn[nH]5)ccc43)c2n1 :: 6.53
CCc1nc2c(C)cc(C)nc2n1C1CCc2cc(-c3ccccc3-c3nn[nH]n3)ccc21 (racemic) :: 6.24
CCCc1nc2c(C)cc(-c3nc4ccccc4n3C)cc2n1Cc1ccc(-c2ccccc2C(=O)O)cc1 :: 5.82
Cc1cc(CC(C)C)nc2c1nc(C(C)C)n2[C@H]1CCc2cc(-c3ccccc3-c3nnn[nH]3)ccc21 :: 7.05
CCc1cc(C)c2nc(CC)n([C@H]3CCc4cc(-c5ccccc5-c5nnn[nH]5)ccc43)c2n1 :: 6.31
CCc1nc2c(C)cc(CC(C)C)nc2n1[C@H]1CCc2cc(-c3ccccc3C(=O)O)ccc21 :: 6.76
CCc1nc2c(C)cc(CC(C)C)nc2n1[C@H]1CCc2cc(-c3ccccc3-c3nnn[nH]3)ccc21 :: 6.67
CCc1nc2c(CC(C)C)cc(C)nc2n1[C@H]1CCc2cc(-c3ccccc3-c3nnn[nH]3)ccc21 :: 6.78

Please respond with reported pEC50 (system Peroxisome proliferator-activated receptor gamma (Homo sapiens, UniProt P37231)) for `CCc1cc(C)c2nc(C(C)C)n([C@H]3CCc4cc(-c5ccccc5-c5nnn[nH]5)ccc43)c2n1` . 6.58
